Measured values drawn from the supplement of paper PMC12042874 for this set.

assay: amyloid nucleation score (Sup35N fusion, yeast selection) (log enrichment); library NNK2; higher = more nucleation; inactive = no reads after selection;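 further: zero at mode of non-aggregating sequences after 7 days selection at 30°C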
Is amyloid nucleation score at least 0.1? Then y. If not, n.

Worked set:
substance | group
WSKQKVAT | y
VGTTNQYDEPTTGLSHC | y
ADYGVGSRFFVALFSNVFGV | y
GTSRLNVEGGLYCRGSIVDV | n
YTLFLPTRNLRFLVVYGVLV | n

Query block: Could you please find out whether KRNVRFVGMITKRMSRSRPI has amyloid nucleation score that meets 0.1 or exceeds it?
Result block: y

Query block: Could you please find out whether RYNTYML has amyloid nucleation score that meets 0.1 or exceeds it?
Result block: n

Query block: Could you please find out whether RIGVSSFVEEHSRIGLGRAP has amyloid nucleation score that meets 0.1 or exceeds it?
Result block: y

Query block: Could you please find out whether LGDERDADQIPSGIYG has amyloid nucleation score that meets 0.1 or exceeds it?
Result block: y

Query block: Could you please find out whether VWQSYRFEEYFCICFQLASA has amyloid nucleation score that meets 0.1 or exceeds it?
Result block: y

Query block: Could you please find out whether EGDMLILEF has amyloid nucleation score that meets 0.1 or exceeds it?
Result block: n

Query block: Could you please find out whether VDISNFTVCRHAIKDLTFRV has amyloid nucleation score that meets 0.1 or exceeds it?
Result block: y

Query block: Could you please find out whether AMVLLYDGTGSTGVNPGQAG has amyloid nucleation score that meets 0.1 or exceeds it?
Result block: y

Query block: Could you please find out whether SAFSVSYTKSAFSARTVDIK has amyloid nucleation score that meets 0.1 or exceeds it?
Result block: n

Query block: Could you please find out whether PRSGVSAKQSCAWNVRDGDR has amyloid nucleation score that meets 0.1 or exceeds it?
Result block: y

Query block: Could you please find out whether SSQTKYQAFRVQATGVCAWM has amyloid nucleation score that meets 0.1 or exceeds it?
Result block: n

Query block: Could you please find out whether RTFLDIIGQTLLYVLVTVLA has amyloid nucleation score that meets 0.1 or exceeds it?
Result block: y

Query block: Could you please find out whether AVLPSIDYGCEPRL has amyloid nucleation score that meets 0.1 or exceeds it?
Result block: y

Query block: Could you please find out whether LNLLNPWYSCKQSRVYNGYI has amyloid nucleation score that meets 0.1 or exceeds it?
Result block: n

Query block: Could you please find out whether FYWHCKGWQRISLGRFIGDC has amyloid nucleation score that meets 0.1 or exceeds it?
Result block: n

Query block: Could you please find out whether FKRSTCNLR has amyloid nucleation score that meets 0.1 or exceeds it?
Result block: n

Query block: Could you please find out whether VRSVGGTLASPWRAYGC has amyloid nucleation score that meets 0.1 or exceeds it?
Result block: y

Query block: Could you please find out whether RFRHNKWYCLLRLAG has amyloid nucleation score that meets 0.1 or exceeds it?
Result block: y

Query block: Could you please find out whether GTSFVKFEK has amyloid nucleation score that meets 0.1 or exceeds it?
Result block: n

Query block: Could you please find out whether YGFENLVSILKFVQVNSKCG has amyloid nucleation score that meets 0.1 or exceeds it?
Result block: y
